I'd appreciate it if you could supply solubility at 24 h values for the items below.
- Method: Solubility test of compounds of formula (I)-(IV) in 4 vehicles (water, SGF, FaSSIF, FeSSIF), HPLC
- Assay type: physicochemical
- Condition details: FaSSIF, pH 6.5, fassif, thermodynamic from solid, vehicle FaSSIF, 24 hours stirring; read-out: Solubility (μg/mL)_24 hours
Numbers only, in µg/mL.

Hi there! I need solubility at 24 h for each item below, if you can.
1. C[C@@H](Oc1ccc2[nH]nc(/C=C(\F)c3ccc(CNC4CCOCC4)nc3)c2c1)c1c(Cl)cncc1Cl.O=C(O)C[C@H](O)C(=O)O [compound of formula (IV)]
2. C[C@@H](Oc1ccc2[nH]nc(/C=C(\F)c3ccc(CNC4CCOCC4)nc3)c2c1)c1c(Cl)cncc1Cl.O=C(O)CC(O)(CC(=O)O)C(=O)O [compound of formula (III)]

A.
824
942

====

- Method: Solubility test of compounds of formula (I)-(IV) in 4 vehicles (water, SGF, FaSSIF, FeSSIF), HPLC
- Format: physicochemical
- Condition details: FeSSIF, pH 5, fessif, thermodynamic from solid, vehicle FeSSIF, 24 hours stirring; read-out: Solubility (μg/mL)_24 hours
Readout type: solubility at 24 h
For clarity, give the value followed by its unit.

// solved cases for solubility at 24 h follow
| Molecule smiles | Observed result |
| --- | --- |
| C[C@@H](Oc1ccc2[nH]nc(/C=C(\F)c3ccc(CNC4CCOCC4)nc3)c2c1)c1c(Cl)cncc1Cl.O=C(O)C[C@H](O)C(=O)O | 2280 µg/mL |
| C[C@@H](Oc1ccc2[nH]nc(/C=C(\F)c3ccc(CNC4CCOCC4)nc3)c2c1)c1c(Cl)cncc1Cl.O=C(O)CC(O)(CC(=O)O)C(=O)O | 2230 µg/mL |

Q. Name the reported solubility at 24 h value associated with the molecule `C[C@@H](Oc1ccc2[nH]nc(/C=C(\F)c3ccc(CNC4CCOCC4)nc3)c2c1)c1c(Cl)cncc1Cl`
A. 1730 µg/mL

====

- Method: Solubility test of compounds of formula (I)-(IV) in 4 vehicles (water, SGF, FaSSIF, FeSSIF), HPLC
- Assay type: physicochemical
- Condition details: SGF (FaSSGF), pH 1.8, simulated gastric fluid, thermodynamic from solid, vehicle SGF, 4 hours stirring; read-out: Solubility (μg/mL)_4 hours
Readout type: solubility at 4 h (µg/mL)
One number for each entry, in µg/mL.

| Molecule smiles | Readout units | solubility at 4 h |
| --- | --- | --- |
| C[C@@H](Oc1ccc2[nH]nc(/C=C(\F)c3ccc(CNC4CCOCC4)nc3)c2c1)c1c(Cl)cncc1Cl.O=C(O)C[C@H](O)C(=O)O | µg/mL | 2470 |

Q. Name the reported solubility at 4 h value associated with the molecule `C[C@@H](Oc1ccc2[nH]nc(/C=C(\F)c3ccc(CNC4CCOCC4)nc3)c2c1)c1c(Cl)cncc1Cl.O=C(O)CC(O)(CC(=O)O)C(=O)O`
A. 2420
